Measured AC50 of individual entries
Biological target: Peroxisome proliferator-activated receptor gamma (Homo sapiens); note: assay procedure not described here
Sequence (P37231 whole entry): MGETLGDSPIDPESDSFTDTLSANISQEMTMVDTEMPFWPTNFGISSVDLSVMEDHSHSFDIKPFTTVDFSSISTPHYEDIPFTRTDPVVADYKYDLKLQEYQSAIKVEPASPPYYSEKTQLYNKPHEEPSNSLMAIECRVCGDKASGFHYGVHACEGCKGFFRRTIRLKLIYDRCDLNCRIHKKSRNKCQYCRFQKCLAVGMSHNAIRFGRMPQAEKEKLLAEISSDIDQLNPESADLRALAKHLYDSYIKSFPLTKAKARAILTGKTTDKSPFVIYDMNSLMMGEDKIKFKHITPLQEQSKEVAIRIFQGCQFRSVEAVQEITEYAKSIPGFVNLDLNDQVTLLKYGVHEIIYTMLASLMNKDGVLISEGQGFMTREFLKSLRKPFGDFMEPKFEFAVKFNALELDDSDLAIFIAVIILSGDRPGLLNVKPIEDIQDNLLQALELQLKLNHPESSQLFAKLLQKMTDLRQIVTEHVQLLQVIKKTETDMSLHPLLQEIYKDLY
Type: functional

Prompt line: Please report AC50 with Peroxisome proliferator-activated receptor gamma (Homo sapiens) for item CC(C)(CO)c1cc2cc(NC(=O)C3(c4ccc5c(c4)OC(F)(F)O5)CC3)c(F)cc2n1C[C@@H](O)CO .
Response line: > 30 µM

Prompt line: Please report AC50 with Peroxisome proliferator-activated receptor gamma (Homo sapiens) for item CO[C@@H]1[C@@H](OC(N)=O)[C@@H](O)[C@H](Oc2ccc3c(O)c(NC(=O)c4ccc(O)c(CC=C(C)C)c4)c(=O)oc3c2C)OC1(C)C .
Response line: > 30 µM

Prompt line: Please report AC50 with Peroxisome proliferator-activated receptor gamma (Homo sapiens) for item CS(=O)(=O)NC(=O)CCC/C=C\C[C@H]1C(=O)C[C@@H](O)[C@@H]1/C=C/[C@@H](O)COc1ccccc1 .
Response line: > 30 µM

All values here come from ChEMBL document CHEMBL5291721.
